- System: OsNAT9 (OsNAT9-GFP) (Oryza sativa, UniProt Q10ET9)
- Measurement description: microscale thermophoresis
- Assay type: binding
Experimental readout: Kd (nM)
All answers are understood in nM, so give the number only.

[[record]]
structure_smiles_string = "O=C1O[C@H]([C@@H](O)CO)C(O)=C1O"
system = "OsNAT9 (OsNAT9-GFP) (Oryza sativa, UniProt Q10ET9)"
experimental_readout = "Kd"
value_units = "nM"
numeric_value = 0.28


Consider the record given below.
Just so you know, measured Kd for `O=c1[nH]c(=O)c2[nH]cnc2[nH]1` came out at 0.39

====

- System: OsNAT9 (OsNAT9-GFP) (Oryza sativa, UniProt Q10ET9, G349A)
- Sequence (Q10ET9 1-527 G349A): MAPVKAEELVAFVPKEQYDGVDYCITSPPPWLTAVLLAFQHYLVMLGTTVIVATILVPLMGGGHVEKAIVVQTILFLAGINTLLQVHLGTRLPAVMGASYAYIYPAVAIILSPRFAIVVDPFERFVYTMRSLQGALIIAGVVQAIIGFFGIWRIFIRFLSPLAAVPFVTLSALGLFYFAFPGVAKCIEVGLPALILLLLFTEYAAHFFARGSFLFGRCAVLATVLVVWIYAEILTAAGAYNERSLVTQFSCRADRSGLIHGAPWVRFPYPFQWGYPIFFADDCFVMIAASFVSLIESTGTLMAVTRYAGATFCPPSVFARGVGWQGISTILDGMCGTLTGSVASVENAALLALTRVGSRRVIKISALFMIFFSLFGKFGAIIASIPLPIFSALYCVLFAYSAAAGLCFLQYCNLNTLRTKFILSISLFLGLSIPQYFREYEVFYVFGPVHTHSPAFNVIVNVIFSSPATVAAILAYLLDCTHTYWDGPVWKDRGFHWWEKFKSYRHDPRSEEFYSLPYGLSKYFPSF
- Measurement description: microscale thermophoresis
Experimental readout: pKd
Keep it numeric: pKd is minus log10 of the concentration in mol/L.

GET /value?item= O=C1O[C@H]([C@@H](O)CO)C(O)=C1O [AsA, ascorbic acid] &field=pKd returns 9.26
